- measured target: L-lactate dehydrogenase (Plasmodium falciparum (isolate CDC / Honduras))
- assay: PfLDH activity inhibition – cell lysate, 3D7 strain, counter-screen for P. falciparum growth inhibition project (AID 2304);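 note: 0% = vehicle and 100% = reference inhibitor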
- protocol conditions: P. falciparum 3D7 crude extract, LDH APAD/NBT absorbance; at 2 µM; stronger effect = higher value
observed property: inhibition (%)
Answer in %, number only, no unit symbol.

Past entries and their recorded results:
INSERT INTO results (compound, readout_value) VALUES
  ('O=C(Nc1ccc(Br)cc1)N(CCN1CCOCC1)CC(O)COc1ccc(Cl)c(F)c1 (stereo not drawn)', -4),
  ('O=C(Cc1ccc(Cl)cc1)Nc1cc(Cl)ccc1Cn1cnc(N2CCNCC2)cc1=O', -4),
  ('COc1cc2nccc(Nc3ccc(OCc4ccc(NC(C)=O)cc4)cc3)c2cc1OC', 3),
  ('O=S1(=O)C=C(c2ccccc2)CC1', -1),
  ('COc1cc(Cc2cnc(N)nc2N)cc(OCCCCC2SC(=O)NC2=O)c1Br (stereo not drawn)', 4),
  ('CCN(CC)CCN(Cc1ccc(-c2ccc(Br)cc2)cc1)C(=O)Cn1c(CCc2cccc(F)c2F)nc(=O)c2ccccc21', 1),
  ('NC1=Nc2ccc(Cl)cc2C1(O)c1ccccc1 (stereo not drawn)', -3),
  ('Cc1ccc(CNC(=O)[C@H](Cc2ccccc2)Nc2cc(C)nc(NCCc3ccc(F)cc3)n2)cc1', -3);

Given item O=S(=O)(Nc1cccc(CCN2CCC(N3CCCCC3)CC2)c1)c1ccc(-c2ccccc2)cc1 , the value recorded as its inhibition is 1

Notebook: CC[C@@H]([C@@H](Cc1cc2ccccc2s1)C(=O)N[C@@H](CCCCNC(=O)OCc1ccccc1)C(=O)Nc1ccccn1)N(O)C=O , inhibition read as 6

Item: CC(C)c1cn2c3c(cc(C(=O)N[C@@H](Cc4ccccc4)[C@H](O)CNC4CCCCC4)cc13)N(C)S(=O)(=O)CC2 | inhibition: 0

Sample CN1CCC(NCc2ccc(-c3cccc(S(=O)(=O)NCCc4ccccn4)c3)cc2)CC1 ; inhibition observed: -1

Reported inhibition of CCCc1c(C(=O)Nc2ccc3c(c2)CCN(C2CCC2)CC3)cnn1-c1ccc(Cl)cc1 : 2

Record CC(O)C1CCCCN1C(=O)c1cccc(-c2ccc(-c3nc4ccc(C(F)(F)F)cc4[nH]3)cc2)c1 (stereo not drawn) . Reported inhibition: 0

O=C(Nc1cccc(Cl)c1)N(CCCn1ccnc1)Cc1csc(-c2ccc(CNCc3ccccc3)cc2)n1 yielded inhibition of 4

Noted for CC(=O)c1sc2ccccc2c1O : its inhibition reads 6

Entry O=C(Nc1ccc(OC2CCN(Cc3ccsc3)CC2)c(Cl)c1)c1ccco1 , inhibition reported as -4

The reported inhibition of the compound Cc1[nH]c(C)c(-c2ccc(Cl)cc2Cl)c(=O)c1Br was -4

----------
- assay: inhibition of 3D7 malaria parasite growth – strain 3D7 (AID 2306);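 note: 0% = DMSO wells and 100% = chloroquine plus artemisinin control wells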
- protocol conditions: P. falciparum 3D7 erythrocytic growth, LDH absorbance, 72 h; at 2 µM; stronger effect = higher value
Items are presented alongside their recorded growth inhibition.
Report as a plain number; the unit % is understood.

INSERT INTO assay_data (compound, observed_property, readout_value) VALUES
  ('Fc1ccc2nc(-c3cccc(-c4ccc(CN5CCN(c6ccncc6)CC5)cc4)c3)[nH]c2c1', 'growth inhibition', 100),
  ('COc1ccc(S(=O)(=O)N2CCC3(CC2)OCC(=O)NC3c2ccc(Cl)c(Cl)c2)cc1 (stereo not given)', 'growth inhibition', 91),
  ('CC(C)c1sc(N2CCCCC2)nc1C(=O)Nc1ccc(F)cc1C(F)(F)F', 'growth inhibition', 100),
  ('Cc1[nH]c(C)c(-c2ccc(-c3ccccc3Cl)nc2)c(=O)c1Br', 'growth inhibition', 97),
  ('CCCCCCCN1CCC(CC(=O)Nc2ccnc3ccc(OC)cc23)CC1', 'growth inhibition', 97),
  ('CC(=O)Nc1cccc(C(=O)Nc2cccc(-c3csc(-c4nc5ccccc5[nH]4)c3)c2)c1', 'growth inhibition', 96),
  ('CCOc1ccc(-c2nonc2NC(=O)c2ccc(OC(C)C)cc2)cc1OCC', 'growth inhibition', 100),
  ('C=C(NC(=O)c1cc(C)cc(C)c1)C(=O)OC', 'growth inhibition', 95);

Reported growth inhibition ( Cc1nc2c(c(C)nn2C(C)(C)C)c(C)c1CCC(=O)Nc1ccc(CN2CCCC2)cc1 ) = 89

Summary for this compound, Cc1ccccc1OCCCON1C(N)=NC(N)=NC1(C)C : growth inhibition is 95

The recorded growth inhibition for entry CC(CN1CCN(C)CC1)C(=O)Nc1ccc(-c2csc(-c3nc4ccccc4[nH]3)c2)cc1 (stereo not given) equals 93

Value of growth inhibition reported for the compound CC(=O)Nc1cccc(C(=O)Nc2cccc(-c3ccc(-c4nc5c(C)cccc5[nH]4)s3)c2)c1 is 99

Record Clc1ccc(CNc2ccnc(NCc3ccc4c(c3)OCCCO4)n2)c(Cl)c1 , field growth inhibition: 94

----------
- assay: HepG2 cytotoxicity, primary screen, cytotoxicity control for P. falciparum antimalarial project, cell-based, ATP luminescence (AID 2303);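 note: 0% = DMSO wells and 100% = digitonin-killed cells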
- protocol conditions: HepG2 viability, 24-48 h, at 10 µM, stronger effect = higher value
Below is a list of entries, each paired with its recorded inhibition value.
Dear colleague, please return just the value in %, with no unit written.

INSERT INTO measurements (molecule, observed_property, readout_value) VALUES
  ('O=C(NCCNc1ccnc(NCc2ccc(F)cc2)n1)c1cc2ccccc2s1', 'inhibition', 6),
  ('CCN(CC)c1ccc(NC(=S)NC2CCN(CCCCCNC(=O)/C=C/c3ccc(Cl)c(Cl)c3)CC2)cc1', 'inhibition', 16),
  ('OC(CN1CCN(Cc2ccccc2)CC1)Cn1c(-c2ccccc2)c(-c2ccccc2)c2ccccc21 (configuration not stated)', 'inhibition', -3),
  ('CCN(CC)CCN(Cc1ccc(-c2ccc(C(F)(F)F)cc2)nc1)C(=O)Cn1c(SCc2ccc(F)cc2)nc(=O)c2sccc21', 'inhibition', 43),
  ('O=C(Nc1ccc2ccccc2c1)N1CCC(NCc2cccc([N+](=O)[O-])c2)CC1', 'inhibition', -1),
  ('O=c1ccc(CNc2nc(NCCc3ccccc3)nc3ccc(Cl)cc23)c[nH]1', 'inhibition', 9);

// field: inhibition; key: CCN(CC)Cc1cc(NC(=O)c2ccccc2O)ccc1Oc1ccc(Cl)cc1 ; value = 32

Lab note: CCCCCN1CCC(NS(=O)(=O)c2ccc(C(=O)Nc3cccc(C(F)(F)F)c3)cc2)C1 (configuration not stated) gave inhibition of 14

Data point: COCCn1c(C)cc(C(=O)CN2C(=O)NC(C)(c3ccc(C(C)(C)C)cc3)C2=O)c1C (configuration not stated) ; inhibition = 7

The reported inhibition of the molecule CN(C)Cc1ccc2nc(-c3cccc(Cc4cc(Cl)ccc4OCc4ccc(Cl)cc4F)n3)[nH]c2c1 was 43

Form: molecule = COc1cc2nc(Nc3ccc(Oc4ccccc4)cc3)nc(Nc3ccc(Oc4ccccc4)cc3)c2cc1OC ; inhibition = 5

Memo: Brc1ccsc1-c1nc(NCCC(c2ccccc2)c2ccccc2)no1 , reported inhibition: 17

Looking up CN1CCN(c2nsc3ccc(-c4ccc(OCCN5CCCC5)cc4)cc23)CC1 , I found its inhibition recorded as 57

// recorded inhibition for C#CCCOc1ccc2ccccc2c1CNCCCCCCNCc1c(OCCC#C)ccc2ccccc12 : 100

// sample CCCc1ccc(Nc2nc(C)cc(N(CC)CCCN3CCCCC3)n2)cc1 , its inhibition was 48

The recorded inhibition for Cc1ccc(NC(=O)c2cc(Br)cc(N3CCC(N(C)C)CC3)c2)cc1F is 23

Memo: COc1ccc(CNC2CCN(C)CC2)cc1-c1ccc(S(=O)(=O)NCc2ccccc2)cc1 , reported inhibition: 56

Reported inhibition ( O=C(/C=C/c1ccc(Cl)cc1)NCCCCCN1CCCC(C(=O)Nc2ccc(Cl)cc2)C1 (configuration not stated) ) = 24

Measured inhibition, O=C(CCC1CCCCC1=O)c1ccccc1 (configuration not stated) : 0

Memo: COc1cc2c(cc1OCCN1CCC(N)CC1)N(C(=O)/C=C/c1ccccc1Cl)CC2 , reported inhibition: 19

----------
- assay: antimalarial activity against Dd2 strain (AID 2302);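 note: 0% = DMSO untreated growth and 100% = chloroquine plus artemisinin killed control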
- protocol conditions: P. falciparum Dd2 in RBCs, LDH growth readout, 72 h; at 2 µM
Activity calls are given as the source filed them.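 Rule for the calls: active = growth inhibition above 50% at the single 2 µM test dose, taken to imply half-maximal potency below 2 µM; inactive = the rest.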
Respond using exactly one of the listed classes: true (1) = active, false (0) = inactive

Recorded results for 3 compounds are shown here.
INSERT INTO assay_data (smiles_representation, label_class) VALUES
  ('CN1CCN(c2ccnc3ccc(NC(=O)Nc4cccc5c(C#N)cccc45)cc23)CC1', 'false (0)'),
  ('Cc1ccc2[nH]c(-c3ccc(/C=C/C(=O)NC4CCN(Cc5ccccc5)CC4)cc3)nc2c1C', 'true (1)'),
  ('Cc1ccc(-c2nc(N3CCN(C(=O)c4ccco4)CC3)c3ccccc3n2)cc1', 'true (1)');

// query Recorded call for COC(=O)[C@@H](NC(=O)[C@@H](Nc1ccc(C#N)c2ccccc12)C(C)(C)C)c1ccc(O)cc1 ?
// result true (1)

// query In this assay, the call recorded for Cc1cccc2[nH]c(-c3cccc(-c4ccc(NC(=O)c5cnccc5C(F)(F)F)cc4)c3)nc12 was what?
// result false (0)

// query How did this test come out for Oc1cccc(-c2nc3ccc(C4=N[C@@H]5CCCC[C@H]5N4)cc3[nH]2)c1 ?
// result true (1)

// query Answer briefly: the call reported for CN1CCC(C(=O)N(Cc2ccc(-c3ccc(CNCCc4ccccc4)cn3)cc2)C2CCN(Cc3ccccc3)CC2)CC1 in this assay.
// result true (1)

Values compiled from PubChem BioAssay.
